Reference for the values: ChEMBL document CHEMBL1154951

System Tested: Mitogen-activated protein kinase 6 (Homo sapiens, UniProt Q16659)
Sequence (Q16659 whole entry): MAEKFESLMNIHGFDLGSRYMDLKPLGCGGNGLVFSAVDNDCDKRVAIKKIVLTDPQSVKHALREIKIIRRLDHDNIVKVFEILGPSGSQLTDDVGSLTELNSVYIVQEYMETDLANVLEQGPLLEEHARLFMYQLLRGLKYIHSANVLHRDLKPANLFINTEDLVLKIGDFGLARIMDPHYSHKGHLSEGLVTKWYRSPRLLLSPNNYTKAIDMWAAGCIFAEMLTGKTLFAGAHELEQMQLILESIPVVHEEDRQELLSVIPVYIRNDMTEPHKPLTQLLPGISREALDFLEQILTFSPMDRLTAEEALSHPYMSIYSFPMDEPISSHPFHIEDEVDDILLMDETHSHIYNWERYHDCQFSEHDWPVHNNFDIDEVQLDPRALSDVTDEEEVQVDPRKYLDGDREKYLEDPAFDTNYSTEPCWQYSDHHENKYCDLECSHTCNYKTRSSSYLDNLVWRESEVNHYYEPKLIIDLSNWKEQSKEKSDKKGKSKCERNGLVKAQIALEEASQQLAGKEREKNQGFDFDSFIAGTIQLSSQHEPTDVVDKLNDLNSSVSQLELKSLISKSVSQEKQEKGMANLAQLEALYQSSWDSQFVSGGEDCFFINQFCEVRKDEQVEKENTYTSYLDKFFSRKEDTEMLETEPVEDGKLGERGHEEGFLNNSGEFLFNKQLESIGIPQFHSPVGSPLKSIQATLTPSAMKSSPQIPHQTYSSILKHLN
Assay Overview: Inhibition of ERK3
Readout Type: Kd (µM)
The response must be a number in µM with no trailing unit.

Can you share its Kd? I mean this compound: Cn1cc(C2=C(c3cccc(NCC(O)CO)c3)C(=O)NC2=O)c2cc(F)ccc21 (racemic) 40

###

UniProt:P17252 data, read-out log10 of IC50
On a log10 scale: recorded IC50, unit nM.

Consider the following illustrative entries.
Cn1cc(C2=C(c3cccc(NCCCO)c3)C(=O)NC2=O)c2ccccc21 | 2.87
COc1ccc(OC)c(C2=C(c3cn(C)c4ccccc34)C(=O)NC2=O)c1 | 2.58
COc1ccc(C2=C(c3cn(C)c4ccccc34)C(=O)NC2=O)c(OC)c1 | 3.74
Cn1cc(C2=C(c3c4n(c5ccccc35)CCN(C(N)=S)C4)C(=O)NC2=O)c2ccccc21 | 3.02
Cn1cc(C2=C(c3cccc(OCC(O)CO)c3)C(=O)NC2=O)c2cc(F)ccc21 (racemic) | 3.34

Please look at the following compound next.
// fetch UniProt:P17252 log10 of IC50 for Cn1cc(C2=C(c3cccc(N)c3)C(=O)NC2=O)c2ccccc21 3.28

###

System Tested: UniProt:P49841
Sequence (P49841 whole entry): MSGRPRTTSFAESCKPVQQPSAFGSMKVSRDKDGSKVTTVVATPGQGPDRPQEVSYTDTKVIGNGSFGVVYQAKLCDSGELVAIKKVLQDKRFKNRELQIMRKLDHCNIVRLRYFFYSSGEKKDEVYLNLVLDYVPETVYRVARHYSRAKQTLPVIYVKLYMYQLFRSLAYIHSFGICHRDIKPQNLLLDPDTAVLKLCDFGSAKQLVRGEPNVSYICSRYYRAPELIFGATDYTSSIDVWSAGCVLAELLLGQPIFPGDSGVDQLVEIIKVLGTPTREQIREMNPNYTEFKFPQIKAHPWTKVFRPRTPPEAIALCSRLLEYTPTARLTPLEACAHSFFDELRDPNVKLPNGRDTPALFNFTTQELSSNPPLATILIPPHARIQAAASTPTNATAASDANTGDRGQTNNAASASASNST
Assay Overview: Inhibition of human recombinant GSK3-beta assessed as [gamma33]ATP transfer to biotinylated CREB-peptide substrate after 1 hr by scintillation counting
Readout Type: pIC50
Please treat pIC50 as minus the base-10 logarithm of the molar concentration.

Which pIC50 value belongs to COc1cccc(C2=C(c3cn(C)c4ccc(Cl)cc34)C(=O)NC2=O)c1 ? 8.19

Requested field: pIC50. Item: Cn1cc(C2=C(Oc3ccccc3)C(=O)NC2=O)c2ccccc21 5.55

Which pIC50 is reported for this compound? Cn1cc(C2=C(N(C(=O)OC(C)(C)C)c3ccccc3)C(=O)NC2=O)c2ccccc21 5.51

Report pIC50 for COc1cccc(C2=C(c3c(C)n(C)c4ccccc34)C(=O)NC2=O)c1 please. 6.66

###

System Tested: Cyclin-dependent kinase 8 (Homo sapiens)
Sequence (P49336 whole entry): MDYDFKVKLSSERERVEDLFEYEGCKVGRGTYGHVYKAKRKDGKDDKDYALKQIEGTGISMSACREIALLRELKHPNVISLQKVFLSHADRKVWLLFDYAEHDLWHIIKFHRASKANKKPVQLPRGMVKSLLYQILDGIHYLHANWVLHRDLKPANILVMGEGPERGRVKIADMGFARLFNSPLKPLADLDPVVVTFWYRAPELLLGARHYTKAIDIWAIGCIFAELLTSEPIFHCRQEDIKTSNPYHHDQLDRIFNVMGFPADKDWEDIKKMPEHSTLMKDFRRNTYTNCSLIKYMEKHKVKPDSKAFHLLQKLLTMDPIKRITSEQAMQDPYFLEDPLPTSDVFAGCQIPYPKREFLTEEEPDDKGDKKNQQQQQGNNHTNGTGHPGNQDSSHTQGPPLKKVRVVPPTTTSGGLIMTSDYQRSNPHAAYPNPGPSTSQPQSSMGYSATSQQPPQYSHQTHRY
Readout Type: pKd
Please express pKd as -log10 of the molar concentration.

Item Cn1cc(C2=C(c3cccc(NCC(O)CO)c3)C(=O)NC2=O)c2cc(F)ccc21 (racemic) with Cyclin-dependent kinase 8 (Homo sapiens) - pKd? 4.40

###

System Tested: Mitogen-activated protein kinase 4 (Homo sapiens, UniProt P31152)
Sequence (P31152 whole entry): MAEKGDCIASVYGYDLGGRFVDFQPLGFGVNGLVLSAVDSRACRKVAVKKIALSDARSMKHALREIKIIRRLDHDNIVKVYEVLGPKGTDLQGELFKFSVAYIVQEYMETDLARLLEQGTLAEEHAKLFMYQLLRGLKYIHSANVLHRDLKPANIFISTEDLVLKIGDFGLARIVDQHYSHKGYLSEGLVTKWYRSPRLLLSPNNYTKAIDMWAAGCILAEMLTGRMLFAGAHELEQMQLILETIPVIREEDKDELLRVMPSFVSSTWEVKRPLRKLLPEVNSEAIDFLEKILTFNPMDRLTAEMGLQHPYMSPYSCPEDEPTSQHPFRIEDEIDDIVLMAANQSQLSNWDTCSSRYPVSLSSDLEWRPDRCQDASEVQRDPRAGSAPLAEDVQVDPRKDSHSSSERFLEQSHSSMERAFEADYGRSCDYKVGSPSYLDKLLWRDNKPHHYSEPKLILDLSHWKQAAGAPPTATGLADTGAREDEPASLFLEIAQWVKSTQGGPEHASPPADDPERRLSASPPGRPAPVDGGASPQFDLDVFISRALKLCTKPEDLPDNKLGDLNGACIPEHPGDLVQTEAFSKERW
Assay Overview: Inhibition of ERK4
Readout Type: Kd (µM)
Give your result in µM as a bare value.

Notebook: pull reported Kd for Mitogen-activated protein kinase 4 (Homo sapiens, UniProt P31152), entry Cn1cc(C2=C(c3cccc(NCC(O)CO)c3)C(=O)NC2=O)c2cc(F)ccc21 (racemic) 40

###

System Tested: Mitogen-activated protein kinase 15 (Homo sapiens, UniProt Q8TD08)
Sequence (Q8TD08 whole entry): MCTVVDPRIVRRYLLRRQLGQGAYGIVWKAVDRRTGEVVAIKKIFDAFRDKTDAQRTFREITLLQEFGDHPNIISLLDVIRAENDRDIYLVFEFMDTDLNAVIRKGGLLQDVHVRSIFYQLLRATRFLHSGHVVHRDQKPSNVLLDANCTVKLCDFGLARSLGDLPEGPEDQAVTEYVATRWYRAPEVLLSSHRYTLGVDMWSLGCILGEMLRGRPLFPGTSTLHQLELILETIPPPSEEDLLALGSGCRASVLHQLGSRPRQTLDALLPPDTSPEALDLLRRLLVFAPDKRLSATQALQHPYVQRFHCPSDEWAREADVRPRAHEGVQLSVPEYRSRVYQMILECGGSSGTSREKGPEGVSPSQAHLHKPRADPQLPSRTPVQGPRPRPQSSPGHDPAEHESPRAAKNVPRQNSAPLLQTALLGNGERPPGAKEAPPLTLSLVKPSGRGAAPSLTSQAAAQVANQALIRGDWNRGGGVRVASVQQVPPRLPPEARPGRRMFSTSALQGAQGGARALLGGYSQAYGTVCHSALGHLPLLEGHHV
Assay Overview: Inhibition of ERK8
Readout Type: Kd
Form entry: enter the amount, then its unit.

Give its Kd value. Item: Cn1cc(C2=C(c3cccc(NCC(O)CO)c3)C(=O)NC2=O)c2cc(F)ccc21 (racemic) 32 nM

###

System Tested: Cyclin-dependent kinase 7 (Homo sapiens)
Sequence (P50613 whole entry): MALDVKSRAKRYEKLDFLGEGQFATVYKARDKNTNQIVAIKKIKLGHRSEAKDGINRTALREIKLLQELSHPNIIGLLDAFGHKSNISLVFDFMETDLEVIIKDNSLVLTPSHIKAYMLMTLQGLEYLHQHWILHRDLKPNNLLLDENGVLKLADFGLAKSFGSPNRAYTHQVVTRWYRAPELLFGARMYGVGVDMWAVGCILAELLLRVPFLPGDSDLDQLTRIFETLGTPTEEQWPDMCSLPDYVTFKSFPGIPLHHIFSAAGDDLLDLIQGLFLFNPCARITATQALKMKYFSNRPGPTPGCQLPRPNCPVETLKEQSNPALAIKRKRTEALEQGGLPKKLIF
Readout Type: Kd
Param answer (str): number followed by unit.

Quick check: Kd on Cyclin-dependent kinase 7 (Homo sapiens), item Cn1cc(C2=C(c3cccc(NCC(O)CO)c3)C(=O)NC2=O)c2cc(F)ccc21 (racemic) ? 41 nM
